System: J774
procedure.details: Cytotoxicity against mouse J774 cells after 24 hrs by resazurin assay
Type: cell-based
condition.summary: J774, 24 h
endpoint.name: log10 of IC50 (log10 of the value in µM)
Recall that a logarithmic scale is used here: each number is log10 of IC50 in µM.

Use these answered entries as a reference point.
| structure.string | system.under.test | quantitative.readout |
| --- | --- | --- |
| S=C(N/N=C(/C(=N/NC(=S)Nc1ccccc1)c1ccccc1)c1ccccc1)Nc1ccccc1 | J774 | 3.39 |
| CCNC(=S)N/N=C(\C)c1ccccn1 | J774 | 3.45 |

I would be grateful if you could share the reported log10 of IC50 for C/C(=N\NC(=S)N1CCCCCC1)c1ccccn1 . 3.66

And O=C(N/N=C/c1ccccc1O)c1ccccc1O ? 3.09

Would you kindly repeat that for O=C(N/N=C/c1ccccn1)c1ccccc1O ? 3.11

Same for O=C(N/N=C(/C(=N/NC(=O)c1ccncc1)c1ccccc1)c1ccccc1)c1ccncc1 2.54

---

Reported MIC by item:
Test system: Mycobacterium tuberculosis
procedure.details: Antimycobacterial activity against Mycobacterium tuberculosis H37Rv after 7 days by resazurine microtiter assay
Format: functional
condition.summary: 168 h
# value in µM; strip the unit string

| structure.string | MIC / µM |
| --- | --- |
| O=C(N/N=C/c1ccccc1O)c1ccccc1O | 122 |

Given the entry CNC(=S)N/N=C(\C)c1ccccn1 , report its measured MIC. 37.5

# iterate: CCNC(=S)N/N=C(\C)c1ccccn1 14.1

Please answer likewise for C/C(=N\NC(N)=S)c1ccccn1 161

Now consider C/C(=N\NC(=S)Nc1ccccc1)c1ccccn1 . 57.7

Lookup S=C(N/N=C(/C(=N/NC(=S)Nc1ccccc1)c1ccccc1)c1ccccc1)Nc1ccccc1 49.1

Another compound to look at: O=C(N/N=C(/C(=N/NC(=O)c1ccncc1)c1ccccc1)c1ccccc1)c1ccncc1 27.9

---

procedure.details: Selectivity index, ratio of IC50 for mouse J774 cells to MIC for Mycobacterium tuberculosis H37Rv
Type: functional
endpoint.name: Selectivity Index
Please reply with the number alone, leaving off any unit.

| structure.string | Selectivity Index |
| --- | --- |
| O=C(N/N=C/c1ccccc1O)c1ccccc1O | 10 |

Entry S=C(N/N=C(/C(=N/NC(=S)Nc1ccccc1)c1ccccc1)c1ccccc1)Nc1ccccc1 has what Selectivity Index? 50

Likewise for O=C(N/N=C(/C(=N/NC(=O)c1ccncc1)c1ccccc1)c1ccccc1)c1ccncc1 ? 12.5

Same question, CCNC(=S)N/N=C(\C)c1ccccn1 this time 200
